As shown below, each of these compounds has a reported inhibition at 0.1 µM value.
Target: N-type calcium channel (Homo sapiens)
Construct: expressed in transfected cells
Sequence (Q00975 whole entry): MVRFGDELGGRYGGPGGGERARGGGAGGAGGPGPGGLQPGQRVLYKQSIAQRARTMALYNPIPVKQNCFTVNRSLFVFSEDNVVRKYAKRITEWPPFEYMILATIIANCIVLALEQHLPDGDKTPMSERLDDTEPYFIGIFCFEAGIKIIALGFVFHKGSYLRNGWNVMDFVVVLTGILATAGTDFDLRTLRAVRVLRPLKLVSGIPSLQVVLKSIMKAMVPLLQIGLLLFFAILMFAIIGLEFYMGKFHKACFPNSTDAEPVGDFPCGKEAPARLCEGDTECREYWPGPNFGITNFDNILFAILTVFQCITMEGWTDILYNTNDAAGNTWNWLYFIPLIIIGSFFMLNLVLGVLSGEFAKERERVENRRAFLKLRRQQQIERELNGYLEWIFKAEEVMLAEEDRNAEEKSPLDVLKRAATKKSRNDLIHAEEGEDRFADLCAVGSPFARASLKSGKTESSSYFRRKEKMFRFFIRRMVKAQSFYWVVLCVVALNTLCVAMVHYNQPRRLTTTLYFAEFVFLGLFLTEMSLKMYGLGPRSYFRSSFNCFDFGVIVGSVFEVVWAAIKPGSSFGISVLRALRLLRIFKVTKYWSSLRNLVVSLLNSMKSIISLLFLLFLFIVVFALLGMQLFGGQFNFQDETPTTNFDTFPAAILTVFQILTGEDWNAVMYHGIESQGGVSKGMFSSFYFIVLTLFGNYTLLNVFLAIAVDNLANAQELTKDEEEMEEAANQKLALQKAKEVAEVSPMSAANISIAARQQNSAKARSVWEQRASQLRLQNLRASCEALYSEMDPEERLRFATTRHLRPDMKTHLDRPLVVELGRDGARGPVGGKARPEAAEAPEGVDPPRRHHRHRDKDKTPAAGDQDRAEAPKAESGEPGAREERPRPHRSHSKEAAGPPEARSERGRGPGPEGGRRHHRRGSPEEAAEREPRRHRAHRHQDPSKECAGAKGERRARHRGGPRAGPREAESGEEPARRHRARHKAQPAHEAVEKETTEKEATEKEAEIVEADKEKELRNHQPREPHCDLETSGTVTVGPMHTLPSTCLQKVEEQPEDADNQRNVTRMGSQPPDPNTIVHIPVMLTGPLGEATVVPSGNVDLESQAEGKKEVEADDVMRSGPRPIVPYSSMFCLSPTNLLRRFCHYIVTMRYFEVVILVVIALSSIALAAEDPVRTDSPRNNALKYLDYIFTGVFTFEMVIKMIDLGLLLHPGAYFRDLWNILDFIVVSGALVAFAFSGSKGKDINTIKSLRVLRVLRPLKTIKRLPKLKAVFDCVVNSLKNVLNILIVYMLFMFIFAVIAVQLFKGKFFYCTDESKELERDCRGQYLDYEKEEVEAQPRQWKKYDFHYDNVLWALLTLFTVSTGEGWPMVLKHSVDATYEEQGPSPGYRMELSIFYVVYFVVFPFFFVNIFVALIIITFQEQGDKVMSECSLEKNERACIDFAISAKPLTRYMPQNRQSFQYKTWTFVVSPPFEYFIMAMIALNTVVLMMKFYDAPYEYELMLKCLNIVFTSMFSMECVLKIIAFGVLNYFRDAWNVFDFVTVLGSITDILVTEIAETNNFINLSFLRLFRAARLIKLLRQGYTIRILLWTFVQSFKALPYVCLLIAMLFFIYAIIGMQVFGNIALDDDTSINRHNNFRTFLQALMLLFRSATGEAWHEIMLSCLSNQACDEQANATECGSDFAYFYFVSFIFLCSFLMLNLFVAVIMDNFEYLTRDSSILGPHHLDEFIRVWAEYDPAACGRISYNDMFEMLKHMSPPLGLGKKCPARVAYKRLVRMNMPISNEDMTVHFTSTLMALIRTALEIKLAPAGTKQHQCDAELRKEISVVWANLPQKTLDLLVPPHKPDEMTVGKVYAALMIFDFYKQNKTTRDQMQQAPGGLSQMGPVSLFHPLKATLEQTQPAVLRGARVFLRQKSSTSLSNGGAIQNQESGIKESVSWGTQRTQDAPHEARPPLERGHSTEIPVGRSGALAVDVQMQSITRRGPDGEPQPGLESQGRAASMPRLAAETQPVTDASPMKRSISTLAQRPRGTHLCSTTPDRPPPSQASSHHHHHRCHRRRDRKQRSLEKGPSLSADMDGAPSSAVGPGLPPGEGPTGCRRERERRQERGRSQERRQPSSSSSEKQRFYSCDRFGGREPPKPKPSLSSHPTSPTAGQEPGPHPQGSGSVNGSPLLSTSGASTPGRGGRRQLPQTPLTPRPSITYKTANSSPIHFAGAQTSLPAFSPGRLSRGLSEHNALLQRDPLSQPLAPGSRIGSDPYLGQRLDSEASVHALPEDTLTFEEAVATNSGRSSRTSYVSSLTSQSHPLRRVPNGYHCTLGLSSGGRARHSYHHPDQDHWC
Sequence (P54284 whole entry partner): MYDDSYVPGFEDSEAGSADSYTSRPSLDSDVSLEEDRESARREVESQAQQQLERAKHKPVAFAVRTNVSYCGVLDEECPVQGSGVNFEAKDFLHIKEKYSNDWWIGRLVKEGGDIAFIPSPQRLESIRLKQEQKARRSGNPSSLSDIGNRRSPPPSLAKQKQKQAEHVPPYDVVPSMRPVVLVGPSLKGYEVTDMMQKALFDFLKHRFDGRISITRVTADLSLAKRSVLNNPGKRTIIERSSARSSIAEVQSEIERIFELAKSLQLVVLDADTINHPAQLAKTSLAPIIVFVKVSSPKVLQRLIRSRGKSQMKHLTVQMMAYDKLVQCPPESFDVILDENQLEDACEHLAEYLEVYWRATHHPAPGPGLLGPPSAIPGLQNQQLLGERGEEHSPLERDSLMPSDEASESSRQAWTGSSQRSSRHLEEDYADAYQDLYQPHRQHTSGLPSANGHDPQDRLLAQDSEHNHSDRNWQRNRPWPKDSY
Sequence (P54289 25-956 partner limits assumed): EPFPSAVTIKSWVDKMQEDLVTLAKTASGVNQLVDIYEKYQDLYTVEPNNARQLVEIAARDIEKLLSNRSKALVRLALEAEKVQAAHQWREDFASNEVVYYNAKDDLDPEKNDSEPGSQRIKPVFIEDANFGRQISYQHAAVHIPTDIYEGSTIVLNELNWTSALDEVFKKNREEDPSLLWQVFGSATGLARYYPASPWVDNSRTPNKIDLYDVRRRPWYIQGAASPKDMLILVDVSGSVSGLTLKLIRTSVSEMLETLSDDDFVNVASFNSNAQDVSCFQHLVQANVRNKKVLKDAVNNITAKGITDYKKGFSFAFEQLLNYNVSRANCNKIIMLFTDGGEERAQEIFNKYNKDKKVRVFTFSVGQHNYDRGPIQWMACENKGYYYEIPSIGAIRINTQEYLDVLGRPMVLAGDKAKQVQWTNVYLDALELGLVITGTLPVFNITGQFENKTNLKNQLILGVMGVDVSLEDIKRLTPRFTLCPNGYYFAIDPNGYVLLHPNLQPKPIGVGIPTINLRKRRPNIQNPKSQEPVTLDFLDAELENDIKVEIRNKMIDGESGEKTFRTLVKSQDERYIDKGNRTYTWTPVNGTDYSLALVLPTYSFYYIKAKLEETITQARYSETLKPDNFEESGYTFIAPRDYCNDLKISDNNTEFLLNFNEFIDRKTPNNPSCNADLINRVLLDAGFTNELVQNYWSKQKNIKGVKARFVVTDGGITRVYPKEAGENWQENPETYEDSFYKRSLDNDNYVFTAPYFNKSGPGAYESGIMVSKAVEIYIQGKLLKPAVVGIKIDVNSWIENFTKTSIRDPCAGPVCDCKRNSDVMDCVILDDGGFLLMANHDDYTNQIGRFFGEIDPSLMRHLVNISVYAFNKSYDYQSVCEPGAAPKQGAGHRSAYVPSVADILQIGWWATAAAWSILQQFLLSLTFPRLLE
Sequence (P54289 957-1103 partner limits assumed): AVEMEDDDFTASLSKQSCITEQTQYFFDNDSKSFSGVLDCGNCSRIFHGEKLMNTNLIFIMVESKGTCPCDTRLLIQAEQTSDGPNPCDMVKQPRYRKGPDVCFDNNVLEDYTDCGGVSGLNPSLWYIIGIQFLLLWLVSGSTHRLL
Assay: Automated electrophysiology assay (QPatch-HT whole-cell patch clamp)
Assay type: cell-based
Conditions: 0.1 μM; high frequency (15th pulse of train, 5 Hz); read-out: QPatch at High Frequency % Inhibition
endpointName: inhibition at 0.1 µM (%)

>>> measurednumber("COc1cc(F)ccc1-n1nc2c(c1-c1ccc(Cl)cc1)CN(S(=O)(=O)C(C)C)C2 [Cpd 71]")
1
>>> measurednumber("CCN(CC)S(=O)(=O)N1Cc2nn(-c3ccccc3OC)c(-c3ccc(Cl)cc3)c2C1 [Cpd 56]")
36
>>> measurednumber("COc1ccccc1-n1nc2c(c1-c1ccc(Cl)nc1)CN(S(=O)(=O)C(C)C)C2 [Cpd 92]")
10
>>> measurednumber("COc1ccccc1-n1nc2c(c1-c1ccc(Cl)cc1)CN(S(=O)(=O)N1CCCCCC1)C2 [Cpd 55]")
54

The reported measurements were obtained from patent US8846949B2.
